system: MDA-N; experiment: NCI tumour cell line growth inhibition, 48 h
I'd appreciate it if you could supply TGI values for the items below.

// COc1ccccc1C1SCC(=O)N1c1ccc(-c2ccc(-n3c(-c4ccccc4)nc4ccccc4c3=O)cc2)cc1 (stereo not drawn) : TGI value = > 100000 nM

// CCCCCC(=O)N[C@@H](c1ccccc1)C(O)C(=O)OC1C[C@@]2(O)C(OC(=O)c3ccccc3)C3[C@](C)(C(=O)[C@H](O)C(=C1C)C2(C)C)C(OC1OCC(O)C(O)C1O)C[C@H]1OC[C@@]31OC(C)=O (stereo partly drawn) : TGI value = 1030 nM

// COc1cc2cc(C(=O)N3C[C@@H](CCl)c4c3cc(N)c3ccccc43)[nH]c2c(OC)c1OC : TGI value = 1.53 nM

====

GI50 tested on SW-620 colon: recorded values

// O=C(Nc1ccc(Cl)cc1)c1ccc(NC2=C(Cl)C(=O)N(Cc3ccccc3)C2=O)cc1 : GI50 value = 6.36 µM

// O=c1nc(Nc2cccc(Cl)c2)oc2cc(Cl)oc(=O)c12 : GI50 value = 10.9 µM

// O=C(NCCCNc1cc(-c2cn(-c3ccccc3)nc2-c2cccc(O)c2)ccn1)c1ccccc1 : GI50 value = 2.36 µM

// NC(=O)c1cc(Br)cc(C2CCCCC2)c1O : GI50 value = 15.5 µM

// Clc1ccc2[nH]cc(-c3nc(-c4c[nH]c5ncccc45)cs3)c2c1 : GI50 value = 3.08 µM

// COC(=O)c1c2c(c(C)[n+]([O-])c1C)C(=O)C=C(NCc1ccc(F)c(F)c1)C2=O : GI50 value = 0.254 µM

====

tested on: TK-10 renal; assay: NCI tumour cell line growth inhibition, 48 h
I'd appreciate it if you could supply TGI values for the items below.

// O=C1NC(N/N=C\C(O)C(O)C(O)CO)=N/C1=C/c1ccc(Cl)cc1 (stereo unspecified) : TGI value = > 100 µM

// O=C1C(NCCc2ccc(O)c(O)c2)=CC(=O)c2ncccc21 : TGI value = > 71.6 µM

// COC1CC2C=C(C)/C=C/C=C/C(=O)NC(c3ccccc3)C/C=C/CCC(O)CC(=O)C2=C1O (stereo unspecified) : TGI value = 1.31 µM

// O=C1C(F)=CC(COC(c2ccccc2)(c2ccccc2)c2ccccc2)OC1n1cc(F)c(=O)[nH]c1=O (stereo unspecified) : TGI value = 3.43 µM

// COC(=O)c1sc(C(=O)OC)c2c1CSC2 : TGI value = > 100 µM

// Cc1ccsc1/C=N/Nc1cc(C)c2cccc(C)c2n1 : TGI value = > 100 µM

// Cc1sc(C)c(Cc2c(C)sc(C)c2CCl)c1CCl : TGI value = > 100 µM

// O=[N+]([O-])c1ccc(N/N=C/c2c(O)ccc3ccccc23)nc1 : TGI value = > 100 µM

// Cn1c(C(C#N)c2nc(Cl)ncc2Br)nc2ccccc21 (stereo unspecified) : TGI value = > 100 µM

// COc1ccc(S(=O)(=O)O)cc1-n1nc(C(=O)Nc2ccccc2)n[n+]1-c1cc(S(=O)(=O)[O-])ccc1OC : TGI value = > 100 µM

// COc1cc2c3c(c1)c1cc(OC)c(OC)cc1c[n+]3CC2 : TGI value = > 100 µM

// COc1ccc(O[C@H](COCc2ccccc2)C[C@@H]2COC(C)(C)O2)cc1 : TGI value = > 100 µM

// O=C(O)/C(=C/c1c(O)ccc2ccccc12)c1csc(-c2nc(/C(=C\c3c(O)ccc4ccccc34)C(=O)O)cs2)n1 : TGI value = 58 µM

// Nc1ccc2c(c1)NCCN2 : TGI value = > 100 µM

// COc1ccc2c(c1OC)C1=C(C2=O)c2cc3c(cc2CCN1)OCO3 : TGI value = > 100 µM

// Cc1cc(-c2[nH]c(C(=O)O)cc2I)on1 : TGI value = > 100 µM

// O=[N+]([O-])/C(C(Cl)=C(Cl)Cl)=C1\NCCO1 : TGI value = > 100 µM

// CN(C)c1ccc(/C=C2\N=C(NN)NC2=O)cc1 : TGI value = > 100 µM

// CO/C1=C\C(C)=C\C(C)C(O)C(C)C/C(C)=C/C=C/C(OC)C(C(C)C(O)C(C)C2(O)CC(O)C(C)C(C(C)C)O2)OC1=O (stereo unspecified) : TGI value = 29.5 µM

// Cc1nc2sc(C(=O)Nc3cccc4ccccc34)c(N)c2cc1C(=O)c1ccccc1 : TGI value = > 50 µM

// CC(C)c1ccc(/C(C(=O)O)=C(\O)C(=O)O)cc1 : TGI value = > 100 µM

====

tested on: OVCAR-8 ovarian; assay: NCI tumour cell line growth inhibition, 48 h
measureName: TGI

Value sought: TGI, system OVCAR-8 ovarian, item CCCCCCCCCCCCCCCCSCC(COC)COP(=O)([O-])OCC[N+](C)(C)C (stereo not drawn) . Result: 22.3 µM

Value sought: TGI, system OVCAR-8 ovarian, item Cn1c(=O)nc2n(-c3cccc(F)c3)c3ccccc3nc-2c1=O . Result: 77.1 µM

Value sought: TGI, system OVCAR-8 ovarian, item O=c1[nH]nc(-c2ccccc2)n1/N=C/c1ccncc1 . Result: > 100 µM

Value sought: TGI, system OVCAR-8 ovarian, item CN(C)c1nc(NC23CC4CC(CC(C4)C2)C3)nc(N(C)C)n1 . Result: > 100 µM

Value sought: TGI, system OVCAR-8 ovarian, item C1CSCCCSCCSCCCSC1 . Result: > 100 µM

Value sought: TGI, system OVCAR-8 ovarian, item N#Cc1cnc2cc(OC[C@@H](O)CO)c(NC(=O)CC3CSSC3)cc2c1Nc1ccc(OCc2cccc(F)c2)c(Cl)c1 . Result: 1.85 µM

Value sought: TGI, system OVCAR-8 ovarian, item Cc1cc(CNC(=O)OCc2ccccc2)c(C)c2c1Oc1ccccc1O2 . Result: 58.5 µM

Value sought: TGI, system OVCAR-8 ovarian, item CCOC(=O)c1c(Br)c(-c2ccc(Br)cc2)c(Br)n1C . Result: 87.1 µM

Value sought: TGI, system OVCAR-8 ovarian, item C=CC1ON(Cc2ccccc2)CCc2cc(OC)c(OC)cc21 (stereo not drawn) . Result: > 100 µM

Value sought: TGI, system OVCAR-8 ovarian, item O=C(/C=C/c1cccc(Br)c1)c1cccs1 . Result: 37.6 µM

Value sought: TGI, system OVCAR-8 ovarian, item O=C1CSC(/C(=C\c2ccc(Cl)cc2)c2nc3ccccc3[nH]2)=N1 . Result: 32 µM

Value sought: TGI, system OVCAR-8 ovarian, item CC(=O)O[C@H]1CC[C@@]2(C)C(=CC[C@H]3[C@@H]4C/C(=C\c5cccc(OCCN6CCOCC6)c5)[C@H](OC(C)=O)[C@@]4(C)CC[C@@H]32)C1 . Result: 20.8 µM

Value sought: TGI, system OVCAR-8 ovarian, item Clc1ccc(Cc2nc3ccc(CCN4CCN(c5ccccc5)CC4)cc3[nH]2)cc1 . Result: 36.3 µM

Value sought: TGI, system OVCAR-8 ovarian, item COC1OC(CO)C(O)C(O)C1Br (stereo not drawn) . Result: > 100 µM

Value sought: TGI, system OVCAR-8 ovarian, item O=C(NCCCCCCNC(=O)n1cc(F)c(=O)[nH]c1=O)NCCCOCCOCCCNC(=O)C(O)C(O)C(O)C(O)CO (stereo not drawn) . Result: > 2.5 µM

Value sought: TGI, system OVCAR-8 ovarian, item CC12CCC(C(=O)O1)C(C)(C)O2 (stereo not drawn) . Result: > 100 µM

Value sought: TGI, system OVCAR-8 ovarian, item CN1C(=S)C(c2ccccc2)Sc2ccccc21 (stereo not drawn) . Result: > 100 µM

Value sought: TGI, system OVCAR-8 ovarian, item C=C1C(=O)OC2(C)C3CCC(C3)C12 (stereo not drawn) . Result: > 100 µM

Value sought: TGI, system OVCAR-8 ovarian, item COC(=O)C(C)(N=Cc1ccccc1)c1ccccc1 (stereo not drawn) . Result: > 100 µM

Value sought: TGI, system OVCAR-8 ovarian, item COc1ccc2[nH]c(Cl)c(/C=C3/C(=O)Nc4cc(C)c(OC)cc43)c2c1 . Result: 25.7 µM

Value sought: TGI, system OVCAR-8 ovarian, item COc1cc(/C=C2\CC3C4CC=C5C[C@@H](OC(C)=O)CC[C@]5(C)C4CC[C@]3(C)C2=O)ccc1OCCCn1ccnc1 (stereo partly drawn) . Result: 21.6 µM

Value sought: TGI, system OVCAR-8 ovarian, item CCCCCCCCCCN(CCCCCCCCCC)CC(=O)c1ccc2cc(Br)c3ccccc3c2c1 . Result: 4.31 µM

Value sought: TGI, system OVCAR-8 ovarian, item O=C1C=C(Br)C(=O)C12CCc1ccccc12 (stereo not drawn) . Result: 64.6 µM

Value sought: TGI, system OVCAR-8 ovarian, item C#CC1(O)C(COP(=O)(O)OC2CC(n3cc(F)c(=O)[nH]c3=O)OC2CO)OC(n2ccc(N)nc2=O)C1O (stereo not drawn) . Result: 14.5 µM

Value sought: TGI, system OVCAR-8 ovarian, item COC(=O)/C=C(\C)C(=O)N(C)c1ccccc1I . Result: > 100 µM

Value sought: TGI, system OVCAR-8 ovarian, item CCN(CC)CCCOC(=O)/C=C/c1c(C)[nH]c(=O)[nH]c1=O . Result: > 625 µM

Value sought: TGI, system OVCAR-8 ovarian, item O=C1O/C(=C(\Br)c2cccc3ccccc23)c2ccccc21 . Result: > 62.3 µM

Value sought: TGI, system OVCAR-8 ovarian, item CC/C=C\C[C@H](O)C/C=C1/C(=O)C=C[C@@H]1C/C=C\CCCC(=O)N(C)C . Result: 11.4 µM

Value sought: TGI, system OVCAR-8 ovarian, item NC(=O)c1nnc2cc(F)ccc2c1N . Result: > 100 µM

Value sought: TGI, system OVCAR-8 ovarian, item O=C(Nc1ccc(F)cc1)c1c(NC(=O)C(F)(F)F)sc2c1CCCCC2 . Result: > 100 µM

Value sought: TGI, system OVCAR-8 ovarian, item Cn1c(C(C#N)c2nc(Cl)ncc2Br)nc2ccccc21 (stereo not drawn) . Result: > 100 µM

Value sought: TGI, system OVCAR-8 ovarian, item Cc1ccsc1/C=N/Nc1cc(C)c2cccc(C)c2n1 . Result: > 100 µM

Value sought: TGI, system OVCAR-8 ovarian, item O=C(Nc1ccc(Cl)cc1)c1ccc(NC2=C(Cl)C(=O)N(Cc3ccccc3)C2=O)cc1 . Result: 28.1 µM

Value sought: TGI, system OVCAR-8 ovarian, item Cc1ccnc2[nH]c(-c3cccc(Cl)c3)cc(=O)c12 . Result: > 100 µM

Value sought: TGI, system OVCAR-8 ovarian, item C=C1C[C@@H](O)C[C@@]2(C)C[C@@H]3OC(=O)C(=C)[C@@H]3C[C@H]12 . Result: 46.6 µM

Value sought: TGI, system OVCAR-8 ovarian, item Cc1ccc(OCC2OC(n3cnc4c(N(C)C)nc(Br)nc43)CC2Oc2ccc(C)cc2)cc1 (stereo not drawn) . Result: > 100 µM

Value sought: TGI, system OVCAR-8 ovarian, item [Se]=P(c1ccccc1)(c1ccccc1)c1ccc(C(c2ccccc2)=P(c2ccccc2)(c2ccccc2)c2ccccc2)cc1 . Result: 8.02 µM

Value sought: TGI, system OVCAR-8 ovarian, item COc1cc(OC)c2c(O)c3c(cc2c1)CC(C)(C)CC3=O . Result: > 100 µM

Value sought: TGI, system OVCAR-8 ovarian, item CC1(C)N=C(C(N)=O)c2ncn(CCO)c2N1 . Result: > 100 µM

Value sought: TGI, system OVCAR-8 ovarian, item CC(=O)OCCOCNC(=S)N/N=C(\C)c1cnc2ccccc2n1 . Result: > 100 µM

Value sought: TGI, system OVCAR-8 ovarian, item COc1ccccc1C1SCC(=O)N1c1ccc(-c2ccc(-n3c(-c4ccccc4)nc4ccccc4c3=O)cc2)cc1 (stereo not drawn) . Result: > 100 µM

Value sought: TGI, system OVCAR-8 ovarian, item CCOc1cc(NC(C)=O)ccc1C(=O)NN1C(=O)C(Oc2ccccc2)C1c1ccccc1 (stereo not drawn) . Result: > 100 µM

Value sought: TGI, system OVCAR-8 ovarian, item COc1ccc2cc1Oc1ccc(cc1)C(Sc1ccccc1)CCOC(=O)CC2 (stereo not drawn) . Result: > 100 µM
